Biological target: Peroxisome proliferator-activated receptor gamma (Homo sapiens)
Sequence (P37231 whole entry): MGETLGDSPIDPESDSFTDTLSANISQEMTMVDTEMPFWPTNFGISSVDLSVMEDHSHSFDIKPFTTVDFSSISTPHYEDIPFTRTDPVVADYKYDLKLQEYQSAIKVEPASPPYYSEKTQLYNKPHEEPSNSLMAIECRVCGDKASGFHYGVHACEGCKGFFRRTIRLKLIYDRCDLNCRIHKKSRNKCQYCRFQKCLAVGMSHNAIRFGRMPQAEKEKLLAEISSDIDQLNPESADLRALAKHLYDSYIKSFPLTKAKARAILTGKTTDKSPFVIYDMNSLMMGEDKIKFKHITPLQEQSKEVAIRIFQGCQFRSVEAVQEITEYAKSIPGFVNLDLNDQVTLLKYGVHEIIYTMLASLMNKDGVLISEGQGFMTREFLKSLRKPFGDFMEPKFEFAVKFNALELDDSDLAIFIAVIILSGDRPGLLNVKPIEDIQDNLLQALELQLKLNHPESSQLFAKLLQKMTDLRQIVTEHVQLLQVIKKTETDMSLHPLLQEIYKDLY
Experiment: Binding affinity against peroxisome proliferator activated receptor gamma (PPAR-gamma)
ENDPOINT_LABEL: Ki (nM)

Known Ki results, listed for orientation:
compound="Cc1oc(-c2ccccc2)nc1CCOc1ccc(CC(Nc2ccccc2C(=O)c2cccnc2)C(=O)O)cc1 (stereo not drawn)" unit_descriptor=nM measured_value=0.933
compound="Cc1oc(-c2ccccc2)nc1CCOc1ccc(CC(Nc2ccccc2C(=O)c2cccc(N)c2)C(=O)O)cc1 (stereo not drawn)" unit_descriptor=nM measured_value=3.24
compound="Cc1oc(-c2ccccc2)nc1CCOc1ccc(CC(Nc2ccccc2C(=O)c2cccc(CO)c2)C(=O)O)cc1 (stereo not drawn)" unit_descriptor=nM measured_value=3.39

1. CNC(=O)c1ccccc1NC(Cc1ccc(OCCc2nc(-c3ccccc3)oc2C)cc1)C(=O)O (stereo not drawn)
2. CSc1nc(NC(Cc2ccc(OCCN(C)c3nc4ccccc4o3)cc2)C(=O)O)c(C(=O)c2ccccc2)s1 (stereo not drawn)
Hey, which is lower on measured Ki, 1 or 2 ? Kindly give the label for the entry you pick. 1
(1: 15.5 nM, 2: 42.7 nM)

a. CN(CCOc1ccc(CC(Nc2ccccc2C(=O)c2cccc(C(F)(F)F)c2)C(=O)O)cc1)c1nc2ccccc2o1 (stereo not drawn)
b. CN(CCOc1ccc(CC(Nc2sccc2C(=O)c2ccccc2)C(=O)O)cc1)c1nc2ccccc2o1 (stereo not drawn)
Hey, which is lower on measured Ki, a or b ? Kindly give the label for the entry you pick. a
(a: 2.63 nM, b: 23.4 nM)
